# Experimental system: β5 subunit of the human constitutive 20S proteasome (Homo sapiens, UniProt P20618+P28074)
# Construct: human erythrocyte 20S; purchased R&D Systems, Inc; host or cells: human erythrocytes (native, purified from tissue)
# Assay comment: In vitro β5 proteasome inhibitory activity and kinetic constants (Suc-LLVY-AMC, chymotrypsin-like activity)
# Format: biochemical
# Particulars: human erythrocyte 20S proteasome, chymotrypsin-like activity, 37 °C
Test readout: K′i (apparent β5 subunit inhibitory activity) (nM)
// return numeric value only (unit: nM, not printed)

Challenge: Write down K′i (apparent β5 subunit inhibitory activity) measured for item CCCCCCCCCC(=O)N[C@@H](Cc1ccccc1)C(=O)N[C@H]1/C=C/CNC(=O)/C=C/[C@H](C(C)C)NC1=O
Response given: 20.6

Challenge: Write down K′i (apparent β5 subunit inhibitory activity) measured for item CCCCCCCCCC(=O)N[C@@H](Cc1ccccc1)C(=O)N[C@H]1C/C=C/CCNC(=O)/C=C/[C@H](C(C)C)NC1=O
Response given: 320

Challenge: Write down K′i (apparent β5 subunit inhibitory activity) measured for item CCCCCCCCCC(=O)N[C@@H](Cc1ccccc1)C(=O)N[C@H]1CC/C=C/CNC(=O)/C=C/[C@H](C(C)C)NC1=O
Response given: 79.2
